# System: HEK-293T
# TEST_DETAILS: Multiplex assay against HEK293T
# Assay type: toxicity, cell-based
# REPORTED_CONDITIONS: human, 24 h, 1 µM, compound concentration 1 uM, replicate 1
Answer each item with its documented Population Normal (%).
Dear colleague, please send the value followed by its unit.

Working through the 4 compounds below one at a time, give Population Normal (%) for each.
1. COc1cc(N2CCC(N(C)C)CC2)ccc1Nc1ncc(Cl)c(Nc2ccccc2P(C)(C)=O)n1
2. CNC(=O)c1nn(C)c2c1C(C)(C)Cc1cnc(Nc3ccc(N4CCN(C)CC4)cc3)nc1-2
3. Cl.Cl.NC1(c2ccc(-c3nc4ccn5c(=O)[nH]nc5c4cc3-c3ccccc3)cc2)CCC1
4. O=C(O)c1ccc2cc(-c3ccc(O)c(C45CC6CC(CC(C6)C4)C5)c3)ccc2c1

["90%", "80%", "82%", "94%"]
